# credit: paper PMC8596843

# System: Enterococcus faecium ATCC 51559, MDR, VRE (VanA)
# EXPERIMENT SUMMARY: Antibacterial MIC assay, Gram-positive panel
# Type: cell-based
# PARTICULARS: Table S1 panel; n=2
OUTCOME MEASURE: MIC (µM)
Quick note: give the figure in µM, leave out the unit.

Example compounds with recorded MIC:
CC(C)C([O][Pt][Cl])/C1=C/CC/C=C\CC1 (stereo not drawn)	50
C1=CCCC=CCC1.[CH3][Pt][Cl]	25
C1=C\CC/C=C\CC/1.[Cl][Pd][Cl]	200
CCC1=CCCC=CCC1.[CH3][Pt][C](F)(F)C(F)(F)C(F)(F)C(F)(F)C(F)(F)C(F)(F)C(F)(F)C(F)(F)F	100

Item: CCC1=CCCC=CCC1.[CH3][Pt][Cl] | MIC: 200

The reported value for C1=CCCC=CCC1.COc1cc[c]([Pt][CH3])cc1 in terms of MIC is 200
